The values you see were collected from patent US9695155B2.

Test system: barnyardgrass
Test: Test C flooded paddy test
Assay type: in vivo, Echinochloa crus-galli
Details: Flood, 250 g ai/ha; scale 0 to 100 (0 no effect, 100 complete control), 13 to 15 days
Source text: At time of treatment, test pots were flooded to 3 cm above the soil surface, treated by application of test compounds directly to the paddy water, and then maintained at that water depth for the duration of the test. Treated plants and controls were maintained in a greenhouse for 13 to 15 days, after which time all species were compared to controls and visually evaluated. […] A dash (-) response means no test result.
For each record, write down the corresponding Plant response rating, Barnyardgrass.
A bare number is all that is needed in reply.

Any idea what its Plant response rating, Barnyardgrass is? The compound is FC(F)(F)c1cnn(-c2c(Cl)cccc2Oc2ncc(Cl)cn2)c1 [Compound 167]
0

I am curious: what Plant response rating, Barnyardgrass value has been reported for FC(F)c1cccc(Oc2ncc(Br)cn2)c1-n1cc(Br)cn1 [Compound 231] ?
0

# input compound: FC(F)c1cccc(Oc2ncc(Cl)cn2)c1-n1cc(Br)cn1 [Compound 194] ; wanted: its Plant response rating, Barnyardgrass
0

Which Plant response rating, Barnyardgrass is reported for this compound? CCCOc1cnn(-c2c(C#N)cccc2Oc2ncc(Cl)cn2)c1 [Compound 150]
0

What does the data say about its Plant response rating, Barnyardgrass? Entry: CCOc1cnn(-c2c(C#N)cccc2Oc2ncc(F)cn2)c1 [Compound 89]
20

Suppose we examine the compound C#Cc1cnn(-c2ccccc2Oc2ncc(Cl)cn2)c1 [Compound 188] ; what Plant response rating, Barnyardgrass value has been reported?
0

###

Give measured Plant response rating, Panicum, Fall for each item. Keep answers brief.
Tested on: fall panicum
Assay: Test E preemergence
Type: in vivo, Panicum dichotomiflorum
Details: 125 g ai/ha, scale 0 to 100, 0 no effect, 100 complete control
The response must contain the number and no unit.

Record `N#Cc1cccc(Oc2ncc(Br)cn2)c1-n1cc(C(F)(F)F)cn1` : what is its Plant response rating, Panicum, Fall with fall panicum?
100

Query the reported Plant response rating, Panicum, Fall for fall panicum; item: `FC(F)(F)c1cnn(-c2ccccc2Oc2ncc(Cl)cn2)c1`
100

Provide the documented Plant response rating, Panicum, Fall with fall panicum as the system for `CCOc1cnn(-c2c(C#N)cccc2Oc2ncc(F)cn2)c1`
100

Requested read-out Plant response rating, Panicum, Fall, target or system fall panicum, entry `FC(F)(F)COc1cnn(-c2ccccc2Oc2ncc(Cl)cn2)c1`
100

Lab note: need Plant response rating, Panicum, Fall for `N#Cc1cccc(Oc2ncc(F)cn2)c1-n1cc(Cl)cn1` on fall panicum, anyone have it?
98

Query the reported Plant response rating, Panicum, Fall for fall panicum; item: `FC(F)(F)c1cnn(-c2c(Cl)cccc2Oc2ncc(Cl)cn2)c1`
100

###

System: blackgrass
Assay: Test C preemergence
Format: in vivo, Alopecurus myosuroides
Conditions: 125 g ai/ha, preemergence; scale 0 (no effect) to 100 (complete control)
Please respond with reported Blackgrass plant response rating for every item in the list.
// return a plain number; no unit text

Reported Blackgrass plant response rating, compound `N#Cc1cnn(-c2c(CF)cccc2Oc2ncc(F)cn2)c1` : ____
90

Param item = `Fc1cnc(Oc2cccc(C(F)F)c2-n2cc(Br)cn2)nc1` ; retrieve measured Blackgrass plant response rating.
95

I am curious: what Blackgrass plant response rating value has been reported for `CCOc1cnn(-c2c(C#N)cccc2Oc2ncc(Cl)cn2)c1` ?
90

What value of Blackgrass plant response rating has been reported for the following compound? `Cc1cnc(Oc2cccc(C#N)c2-n2cc(I)cn2)nc1`
80

Blackgrass plant response rating for `COc1cnn(-c2c(C#N)cccc2Oc2ncc(Cl)cn2)c1` ?
10

Suppose we examine the compound `Fc1cccc(Oc2ncc(Cl)cn2)c1-n1cc(OCC(F)(F)F)cn1` ; what Blackgrass plant response rating value has been reported?
95

Which Blackgrass plant response rating reading was recorded for the compound `CCCOc1cnn(-c2c(C#N)cccc2Oc2ncc(Cl)cn2)c1` ?
50

Endpoint output: Blackgrass plant response rating of `N#Cc1cccc(Oc2ncc(F)cn2)c1-n1cc(I)cn1` . Value?
98
